Target: UniProtKB P28222
Assay: Inhibition of forskolin-stimulated adenylate cyclase (cAMP radioimmunoassay) in 5-HT1Dβ-presenting CHO cells
attribute.measured: pEC50
For clarity, pEC50 is expressed as the negative log10 of concentration in mol/L.

Ask: Entry Cl.NCCc1c[nH]c2ccc(OCCCCCCCCO)cc12 [Example 5, hydrochloride] has what pEC50?
Reply: 6.70

---

Target: 5-HT1Dβ receptor (Homo sapiens, UniProt P28222)
Construct: expressed in transfected cells
Sequence (P28222 whole entry): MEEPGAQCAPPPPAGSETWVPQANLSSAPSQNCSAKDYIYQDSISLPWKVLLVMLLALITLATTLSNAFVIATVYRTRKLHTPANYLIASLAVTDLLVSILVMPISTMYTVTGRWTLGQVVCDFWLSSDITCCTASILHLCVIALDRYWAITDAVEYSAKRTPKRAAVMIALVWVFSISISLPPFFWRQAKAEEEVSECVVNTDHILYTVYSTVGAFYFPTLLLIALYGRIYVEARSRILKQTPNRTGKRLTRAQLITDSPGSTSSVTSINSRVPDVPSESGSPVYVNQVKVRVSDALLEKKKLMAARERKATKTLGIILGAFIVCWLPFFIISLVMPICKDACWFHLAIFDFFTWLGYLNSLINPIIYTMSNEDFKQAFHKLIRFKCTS
Assay: biochemical
Type: binding
Settings: selectivity ratio; 5-HT1A binding with 3H-8-OH-DPAT, 5-HT1Dβ with 3H-5HT
Counter-ions that a name gives are not always drawn.
Examples of molecules with documented 5-HT1Dβ/5HT1A follow.

Worked examples follow.
Cl.NCCc1c[nH]c2ccc(OCCCCCCCCO)cc12 [Example 5]: 119
CCCCCCCCCOc1ccc2[nH]cc(CCN)c2c1 [Example 4, oxalate]: 260
CCCCOCCCCOc1ccc2[nH]cc(CCN)c2c1 [Example 9]: 30

Ask: Entry CCOCCCCCCOc1ccc2[nH]cc(CCN)c2c1 [Example 8, hydrochloride] has what 5-HT1Dβ/5HT1A?
Reply: 180
